- Tested on: HS729
- protocol_notes: relative viability vs DMSO control (72 h) (fraction); higher = more viable cells
- assay_conditions: 0.00152 µM
quantity_kind: relative viability
Write the number on its own, no unit after it.

Query: So what relative viability did CC(C)Oc1ccc(-c2nn([C@@H](C)c3oc4ccc(F)cc4c(=O)c3-c3cccc(F)c3)c3ncnc(N)c23)cc1F [Umbralisib] get with HS729?
Reply: 1.05

Query: So what relative viability did CNC(=O)c1ccccc1Sc1ccc2c(/C=C/c3ccccn3)n[nH]c2c1 [Axitinib] get with HS729?
Reply: 1.04

Query: So what relative viability did CN1CCN(c2ccc(C(=O)Nc3n[nH]c4ccc(Cc5cc(F)cc(F)c5)cc34)c(NC3CCOCC3)c2)CC1 [Entrectinib] get with HS729?
Reply: 0.931

Query: So what relative viability did CCc1cnn2c(NCc3ccc[n+]([O-])c3)cc(N3CCCC[C@H]3CCO)nc12 [Dinaciclib] get with HS729?
Reply: 1.09

Query: So what relative viability did CC[C@@H]1CN(C(=O)NCC(F)(F)F)C[C@@H]1c1cnc2cnc3[nH]ccc3n12 [Upadacitinib] get with HS729?
Reply: 0.973

Query: So what relative viability did O=S(=O)(c1cccc2cnccc12)N1CCCNCC1 [Fasudil] get with HS729?
Reply: 0.964

Query: So what relative viability did Cn1ncnc1[C@H]1c2n[nH]c(=O)c3cc(F)cc(c23)N[C@@H]1c1ccc(F)cc1 [Talazoparib] get with HS729?
Reply: 1.03

Query: So what relative viability did CC#CC(=O)N1CCC[C@H]1c1nc(-c2ccc(C(=O)Nc3ccccn3)cc2)c2c(N)nccn12 [Acalabrutinib] get with HS729?
Reply: 0.903

Query: So what relative viability did CC(C)(C)c1nc(-c2cccc(NS(=O)(=O)c3c(F)cccc3F)c2F)c(-c2ccnc(N)n2)s1 [Dabrafenib] get with HS729?
Reply: 0.867
